Molecular target: T1, human IL-11Rα (human, UniProt Q14626 23-363, limits assumed)
T1 construct: Protein coated on ELISA plates and used in solution for BLI; also called hIL-11Rα; hIL-11R
T1 sequence: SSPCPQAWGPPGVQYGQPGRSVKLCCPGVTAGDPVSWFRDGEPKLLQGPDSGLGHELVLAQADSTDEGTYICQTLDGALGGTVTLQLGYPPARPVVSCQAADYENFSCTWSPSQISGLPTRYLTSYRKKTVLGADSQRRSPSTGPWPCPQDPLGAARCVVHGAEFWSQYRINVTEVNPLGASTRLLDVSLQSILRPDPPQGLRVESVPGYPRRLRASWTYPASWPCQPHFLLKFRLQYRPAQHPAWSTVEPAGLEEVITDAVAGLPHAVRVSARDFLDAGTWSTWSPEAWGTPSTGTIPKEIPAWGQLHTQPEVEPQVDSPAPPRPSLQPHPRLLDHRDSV
Assay: competitive ELISA, IL-11R coated on plate; competitor: biotinylated TS7 (0.1 µg/mL)
Field: IC50. Provide a value for each of the binders that follow.
Give the quantity in µg/mL, number only.

Can you share its IC50? I mean this binder: mAb13 (antibody, V domains shown, Expressed as human IgG4 (S228P EU)) VH: EVQLLESGGGLVQPGGSLRLSCAASGFTFSWYSMTWVRQAPGKGLEWVSSIVPYGDLTQYADSVKGRFTISRDNSKNTLYLQMNSLRAEDTAVYYCAKPEDWGRFDLWGRGTLVTVSS VL: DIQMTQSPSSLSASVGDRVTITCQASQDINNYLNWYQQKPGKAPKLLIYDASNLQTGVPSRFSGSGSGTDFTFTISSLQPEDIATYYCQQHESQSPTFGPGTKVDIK
2.3

Fill in the blank: the reported IC50 of mAb9 (antibody, V domains shown, Expressed as human IgG4 (S228P EU)) VH: EVQLLESGGGLVQPGGSLRLSCAASGFTFSWYSMTWVRQAPGKGLEWVSGIVPYGDLTQYADSVKGRFTISRDNSKNTLYLQMNSLRAEDTAVYYCAKGPGWGSFDLWGRGTLVTVSS VL: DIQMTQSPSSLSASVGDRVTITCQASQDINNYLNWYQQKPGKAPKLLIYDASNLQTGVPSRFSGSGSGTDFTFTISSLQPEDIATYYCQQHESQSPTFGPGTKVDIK is ____.
2.3

Would you mind telling me what IC50 value was observed for mAb8 (antibody, V domains shown, Expressed as human IgG4 (S228P EU)) VH: EVQLLESGGGLVQPGGSLRLSCAASGFTFSSYAMSWVRQAPGKGLEWVSSIVPYGDLTQYADSVKGRFTISRDNSKNTLYLQMNSLRAEDTAVYYCAKGPGWGSFDLWGRGTLVTVSS VL: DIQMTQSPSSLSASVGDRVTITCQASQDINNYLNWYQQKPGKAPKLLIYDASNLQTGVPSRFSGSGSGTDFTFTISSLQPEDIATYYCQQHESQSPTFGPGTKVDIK ?
6.2

Report IC50 for mAb5 (antibody, V domains shown, Expressed as human IgG4 (S228P EU); also called mAb5 IL11RA Ab) VH: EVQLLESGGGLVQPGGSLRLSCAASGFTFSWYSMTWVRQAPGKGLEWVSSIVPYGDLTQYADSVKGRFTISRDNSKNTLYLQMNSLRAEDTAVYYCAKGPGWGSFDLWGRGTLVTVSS VL: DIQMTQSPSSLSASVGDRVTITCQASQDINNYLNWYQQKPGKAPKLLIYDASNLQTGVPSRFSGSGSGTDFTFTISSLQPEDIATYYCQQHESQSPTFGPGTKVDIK please.
2.1
